# system_name: T1, Human CD137 ECD (human)
# T1 construct: also called 4-1BB
# assay: single mutant vs template dBBDu183H
Please respond with reported fold change of affinity for every item in the list.
One number for each entry, in fold.

{"binder": "H183/L072 VH K52N (antibody, name in Kabat numbering, V domains shown) VH: QVQLVESGGGLVQPGRSLRLSCAASGFTFSNAWMHWVRQAPGKGLEWVAQINDKGNAYAAYYAPSVKGRFTISRDDSKNSIYLQMNSLKTEDTAVYYCHYVHYASASTVLPAFGVDAWGQGTTVTVSS VL: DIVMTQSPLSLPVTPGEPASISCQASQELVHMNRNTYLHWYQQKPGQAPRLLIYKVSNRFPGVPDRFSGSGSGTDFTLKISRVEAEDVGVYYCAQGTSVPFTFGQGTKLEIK", "unit_spec": "fold", "fold change of affinity": 0.2}

Now consider a different binder.
Inquiry: Item H183/L072 VH A60R (antibody, name in Kabat numbering, V domains shown) VH: QVQLVESGGGLVQPGRSLRLSCAASGFTFSNAWMHWVRQAPGKGLEWVAQIKDKGNAYAAYYRPSVKGRFTISRDDSKNSIYLQMNSLKTEDTAVYYCHYVHYASASTVLPAFGVDAWGQGTTVTVSS VL: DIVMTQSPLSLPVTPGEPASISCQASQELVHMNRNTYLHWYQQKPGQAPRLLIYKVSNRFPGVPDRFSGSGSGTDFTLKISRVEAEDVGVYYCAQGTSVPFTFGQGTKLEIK has what recorded fold change of affinity?
Reply text: 1.2
